- measurement_target: T1, CD81 (UniProt P60033 1-236, limits assumed)
- T1 construct: whole, on cells; also called CD81 receptor
- T1 sequence (looked up): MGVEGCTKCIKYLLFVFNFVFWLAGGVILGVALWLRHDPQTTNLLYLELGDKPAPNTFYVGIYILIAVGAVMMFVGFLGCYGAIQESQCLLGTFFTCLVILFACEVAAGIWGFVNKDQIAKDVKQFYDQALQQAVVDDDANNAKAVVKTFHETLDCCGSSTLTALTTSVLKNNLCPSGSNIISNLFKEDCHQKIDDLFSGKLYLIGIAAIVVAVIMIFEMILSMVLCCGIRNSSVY
- method_notes: cell ELISA;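 further: antibody binding to HuH7 cells expressing CD81 versus a CD81-negative HuH7 control line, bound antibody detected by secondary reagent, absorbance at 450 nm with 620 nm reference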
ELISA data by entry:
Lab note: jot the number down without any unit.

INSERT INTO assay_data (binder, endpoint_result) VALUES
  ('CD81K04 HC GG-04-hVH_1_69 / LC JA_GG-09-hVK_4_1 (antibody, V domains shown, human constant region) VH: QVQLVQSGAEVKKPGSSVKVSCKASGYTFSSSWMNWVRQAPGQGLEWMGRIYSGDGDAIYNQKFQGRATITADESTSTAYMELSSLRSEDTAVYYCAREGKTGDLLLRSWGQGTLVTVSS VL: DIVMTQSPDSLAVSLGERATINCKSSKSVSTSIYSYMHWYQQKPGQPPKLLIKYASTRESGVPDRFSGSGSGTDFTLTISSLQAEDVAVYYCEHSREFPFTFGQGTKLEIK', 0.918),
  ('CD81K04 HC GG-04-hVH_1_69 / LC JA_GG-07-hVK_7_3 (antibody, V domains shown, human constant region) VH: QVQLVQSGAEVKKPGSSVKVSCKASGYTFSSSWMNWVRQAPGQGLEWMGRIYSGDGDAIYNQKFQGRATITADESTSTAYMELSSLRSEDTAVYYCAREGKTGDLLLRSWGQGTLVTVSS VL: DIVLTQSPASLAVSPGQRATITCRASKSVSTSIYSYMHWYQQKPGQPPKLLIKYASNKDTGVPARFSGSGSGTDFTLTINPVEANDAANYYCLHSREFPYTFGQGTKLEIK', 0.12),
  ('CD81K04 HC GG-07-hVH_5_51 / LC CD81K04 (antibody, V domains shown, human constant region) VH: EVQLVQSGAEVKKPGESLKISCKGSGYSFSSSWMCWVRQMPGKGLEWMGCIYSGDGDAIYSPSFQGQVTISADKSISTAYLQLSSLKASDTAMYYCAREGKTGDLLLRSWGQGTLVTVSS VL: DIVLTQSPASLSVSLGQRATISCRASKSVSTSIYSYMHWYQQKPGQPPKLLIKYASYLESGVPARFSGSGSGTDFTLNIHPVEEEDAATYYCEHSREFPFTFGTGTKLEIK', 0.233),
  ('CD81K04 HC JA_GG-14-hVH_1_69-GA / LC JA_GG-08-hVK_4_1 (antibody, V domains shown, human constant region) VH: QVQLVQSGAEVKKPGSSVKVSCKASGYTFSSSWMNWVRQAPGQGLEWMGRIYSGDGDAIYNGKFKGKATITADESTSTAYMELSSLRSEDTAVYYCAREGKTGDLLLRSWGQGTLVTVSS VL: DIVMTQSPDSLAVSLGERATINCKSSKSVSTSIYSYMHWYQQKPGQPPKLLIKYASYLESGVPDRFSGSGSGTDFTLTISSLQAEDVAVYYCEHSREFPFTFGQGTKLEIK', 0.836);

Then this binder:
Short answer for CD81K04 HC JA_GG-15-hVH_1_3 / LC JA_GG-10-hVK_4_1 (antibody, V domains shown, human constant region) VH: QVQLVQSGAEVKKPGASVKVSCKASGYTFSSSWMNWVRQAPGQRLEWMGRIYSGDGDAIYNGKFKGRVTITADTSASTAYMELSSLRSEDTAVYYCAREGKTGDLLLRSWGQGTLVTVSS VL: DIVMTQSPDSLAVSLGERATINCRASKSVSTSIYSYMHWYQQKPGQPPKLLIKYASYLESGVPDRFSGSGSGTDFTLTISSLQAEDVAVYYCEHSREFPFTFGQGTKLEIK : ELISA data was 0.915
